# System: morningglory (Ipomoea spp.)
# Test Method Notes: Test B pre-/postemergence plant response
# Assay type: in vivo
# Condition Set: Postemergence, 500 g ai/ha; 0 to 100 scale (0 no effect, 100 complete control)
# From the text: […]
Here the recorded Plant response rating, Morningglory is given for each entry.
Answer using only a numeral; do not append any unit.

Example entries begin here.
- Cc1noc(C)c1-c1c(C#N)cccc1Oc1ncc(Cl)cn1: 90
- Clc1cnc(Oc2ccccc2-c2cccnc2)nc1: 30
- FC(F)(F)c1cnc(Oc2ccccc2-c2cncs2)nc1: 10

Param readout= Plant response rating, Morningglory; system= morningglory (Ipomoea spp.); entry= Clc1ccc(-c2c(Br)cccc2Oc2ncc(Cl)cn2)nc1 ; returns value. 50

----------
# Tested on: kochia (Kochia scoparia)
# Test Method Notes: Test B pre-/postemergence plant response
# Type: in vivo
# Condition Set: Preemergence, 125 g ai/ha; 0 to 100 scale (0 no effect, 100 complete control)
Reported Kochia plant response rating is given for each of the following molecules.
Give only the figure.

• FC(F)(F)c1cc(-c2c(Br)cccc2Oc2ncc(Cl)cn2)no1 [Compound 170] = 30

Quick check: Kochia plant response rating of FC(Cl)(Cl)c1cc(-c2ccccc2Oc2ncc(Cl)cn2)no1 [Compound 198] ? 30

Name the reported Kochia plant response rating value associated with the molecule FC(F)(F)c1ccc(-c2c(Cl)cccc2Oc2ncc(Cl)cn2)nc1 [Compound 160] 30

----------
# System: kochia (Kochia scoparia)
# Test Method Notes: Test B pre-/postemergence plant response
# Type: in vivo
# Condition Set: 125 g ai/ha, postemergence; 0 to 100 scale, 0 no effect, 100 complete control
Assign t whenever Plant response rating, Kochia does not fall below 70; assign f whenever it does.

Solved cases below.
* FC(F)c1cc(-c2c(Cl)cccc2Oc2ncc(Br)cn2)on1 | t
* Fc1ccnc(-c2ccccc2Oc2ncc(Cl)cn2)c1 | f

Does Clc1cnc(Oc2ccccc2-c2nnc(C3CC3)o2)nc1 have a reported Plant response rating, Kochia of at least 70? f

Could you verify whether the entry FC(F)(Br)c1cc(-c2ccccc2Oc2ncc(Cl)cn2)no1 shows Plant response rating, Kochia of no less than 70? t

----------
# Tested on: velvetleaf (Abutilon theophrasti)
# Test Method Notes: Test B pre-/postemergence plant response
# Type: in vivo
# Condition Set: Preemergence, 125 g ai/ha; 0 to 100 scale where 0 is no effect and 100 is complete control
# Text: […]
Reported Plant response rating, Velvetleaf values follow for various compounds

# annotated cases, reported Plant response rating, Velvetleaf shown
* Cn1cc(-c2ccccc2Oc2ncc(Cl)cn2)cn1 | 10
* FC(F)(F)c1ccc(-c2ccccc2Oc2ncc(Br)cn2)nc1 | 0

Suppose we examine the compound Cn1ccc(-c2ccccc2Oc2ncc(Cl)cn2)n1 ; what Plant response rating, Velvetleaf value has been reported? 0

----------
# Test system: giant foxtail (Setaria faberii)
# Test Method Notes: Test B pre-/postemergence plant response
# Format: in vivo
# Condition Set: Preemergence, 125 g ai/ha; 0 to 100 scale where 0 is no effect and 100 is complete control
Test Readout: Plant response rating, Foxtail, Giant
# print the numeric value only

Known Plant response rating, Foxtail, Giant results, listed for orientation:
• Cc1cc(-c2ccccc2Oc2ncc(Cl)cn2)no1 [Compound 60] = 80
• FC(F)(F)c1ccnc(-c2ccccc2Oc2ncc(Br)cn2)c1 [Compound 26] = 0
• COc1cccc(Oc2ncc(Cl)cn2)c1-c1cc(C(F)F)no1 [Compound 103] = 90
• Cc1nc(-c2ccccc2Oc2ncc(Cl)cn2)co1 [Compound 70] = 0
• COc1cccc(Oc2ncc(Cl)cn2)c1-c1cc(C)no1 [Compound 110] = 70
• FC(F)(F)c1cccc(-c2ccccc2Oc2ncc(Cl)cn2)n1 [Compound 19] = 0
• Fc1ccc(Oc2ncc(Cl)cn2)c(-c2cc(C(F)F)on2)c1F [Compound 113] = 100
• FC(F)(F)c1cc(-c2ccccc2Oc2ncc(Br)cn2)on1 [Compound 64] = 90

Given the compound Cn1nnc(-c2ccccc2Oc2ncc(Cl)cn2)n1 [Compound 48] , what is its reported Plant response rating, Foxtail, Giant? 10

Return reported Plant response rating, Foxtail, Giant; argument: Cn1nnc(-c2ccccc2Oc2ncc(Br)cn2)n1 [Compound 50] 0

Fill in the blank: the reported Plant response rating, Foxtail, Giant of COc1cccc(Oc2ncc(Cl)cn2)c1-c1cc(C(F)(F)F)no1 [Compound 104] is ____. 100

Item COc1cccc(Oc2ncc(Cl)cn2)c1-c1cc(C(F)(F)F)on1 [Compound 105] has what recorded Plant response rating, Foxtail, Giant? 100

Which Plant response rating, Foxtail, Giant value belongs to Cn1cnc(-c2ccccc2Oc2ncc(Cl)cn2)n1 [Compound 115] ? 0

What value of Plant response rating, Foxtail, Giant has been recorded for this entry: COc1cccc(Oc2ncc(Cl)cn2)c1-c1cc(C(F)F)on1 [Compound 109] 100

// Plant response rating, Foxtail, Giant lookup, key: Fc1cc(F)c(-c2cc(C(F)F)no2)c(Oc2ncc(Cl)cn2)c1 [Compound 107] 0
